system: T1, human MSLN-hFc protein (Acro, Cat. No. MSN-H5253) (human, UniProt Q13421 296-580)
T1 construct: bought protein; also called human MSLN full-length protein; not shown: human Fc (hFc) of the bought protein
T1 sequence (Q13421 other isoform, or with tags, fused parts or gaps limits assumed): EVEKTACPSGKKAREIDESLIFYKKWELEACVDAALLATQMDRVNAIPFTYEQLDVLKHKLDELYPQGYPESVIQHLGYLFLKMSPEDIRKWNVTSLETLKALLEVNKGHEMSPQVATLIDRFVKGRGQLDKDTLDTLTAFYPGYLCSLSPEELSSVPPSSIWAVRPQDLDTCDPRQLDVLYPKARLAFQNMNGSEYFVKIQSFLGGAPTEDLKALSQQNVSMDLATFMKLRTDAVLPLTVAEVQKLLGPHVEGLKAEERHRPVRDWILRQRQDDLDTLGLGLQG
assay-procedure: ELISA, coated human MSLN-hFc, antibody 10 nM
Form field: OD450 nm (one value per entry).
# answer = number (no unit)

F2.39.3-H9 (scFv, not shown: small tags and cut ends, also called S009-F2.39.3 humanized VH3 + VL1) scFv: EVQLVQSGAEVKKPGASVKVSCKASGYTFTNYWMHWVRQAPGQGLEWMGNINPSSGDSYYNERFMSRVTMTVDKSTSTAYMELSSLRSEDTAVYYCARSGGLWLAFWGPGTLVTVSSGGGGSGGGGSGGGGSDIVMTQSPDSLAVSLGERATINCKSSQTLLNSVSQNNYLAWYQQKPGQSPKLLIYFASTRESGVPDRFSGSGSGTDFTLTISSLQAEDVAVYYCQQHYRTPYTFGGGTKVEIK :: 1.22

Ask: So what's the measured OD450 nm for this one? F2.39.3-H6 (scFv, not shown: small tags and cut ends, also called S009-F2.39.3 humanized VH2 + VL2) scFv: EVQLVQSGAEVKKPGASVKVSCKASGYTFTNYWMHWVRQAPGQGLEWMGNINPSSGDSYYNERFMSRVTMTVDKSTSTAYMELSSLRSEDTAVYYCARSGGLWLAFWGQGTLVTVSSGGGGSGGGGSGGGGSDIVMTQSPDSLAVSLGERATINCKSSQTLLNSVSQNNYLAWYQQKPGQSPTLLIYFASTRESGVPDRFSGSGSGTDFTLTISSLQAEDVAVYYCQQHYRTPYTFGGGTKVEIK
Result: 1.18

Ask: And the next one, F2.39.3-H8 (scFv, not shown: small tags and cut ends, also called S009-F2.39.3 humanized VH2 + VL4) scFv: EVQLVQSGAEVKKPGASVKVSCKASGYTFTNYWMHWVRQAPGQGLEWMGNINPSSGDSYYNERFMSRVTMTVDKSTSTAYMELSSLRSEDTAVYYCARSGGLWLAFWGQGTLVTVSSGGGGSGGGGSGGGGSDIVMTQTPLSLSVTPGQPASISCKSSQTLLNSVSQNNYLAWYQQKPGQSPTLLVYFASTRESGVPDRFSGSGSGTDFTLKISRVEAEDVGVYYCQQHYRTPYTFGGGTKVEIK ?
Result: 1.17
